As shown below, each of these compounds has a reported Ki value.
experimentalSystem: huPA-H99Y (Homo sapiens, UniProt P00749, H272Y)
Construct: To ensure that the uPAs purified from the conditioned media were completely in the two-chain form, they were treated with plasmin; hexa-His (C); made in house; host or cells: HEK293 6E suspension cells
protocolSummary: Ki for inhibition of huPA-H99Y, chromogenic substrate S-2444
Type: biochemical
measurementParameters: 37°C; means ± S.D.; read-out: K i for inhibition of huPA-H99Y
Bridge positions count the residues as written; N and C are the ends. Peptide text beside a SMILES is read from it.

# compound, Ki
records = [
    ("CC(=O)N[C@H]1CSSC[C@@H](C(N)=O)NC(=O)[C@H](CC(=O)O)NC(=O)[C@H](CC(C)C)NC(=O)[C@H](Cc2ccc(O)cc2)NC(=O)[C@H](CCCNC(=N)N)NC(=O)[C@H](CO)NC(=O)[C@H](Cc2ccc(O)cc2)NC(=O)[C@H](C)NC(=O)[C@H](C)NC1=O [Mupain-1 P2A, CAAYSRYLDC] (Ac-CAAYSRYLDC-NH2; disulfide 1-10)", "> 1 mM"),
]

[Q] Name the reported Ki value associated with the compound CC(=O)N[C@H]1CSSC[C@@H](C(N)=O)NC(=O)[C@H](CC(=O)O)NC(=O)[C@H](CC(C)C)NC(=O)[C@H](Cc2ccc(O)cc2)NC(=O)[C@H](CCCNC(=N)N)NC(=O)[C@H](C)NC(=O)[C@H](Cc2ccc(O)cc2)NC(=O)[C@H](C)NC(=O)[C@@H]2CCCN2C1=O [Mupain-1 S5A, CPAYARYLDC] (Ac-CPAYARYLDC-NH2; disulfide 1-10)
[A] > 1 mM

[Q] Same for CC(=O)N[C@H]1CSSC[C@@H](C(N)=O)NC(=O)[C@H](CC(=O)O)NC(=O)[C@H](CC(C)C)NC(=O)[C@H](Cc2ccc(O)cc2)NC(=O)[C@H](CCCNC(=N)N)NC(=O)[C@H](CO)NC(=O)[C@H](C)NC(=O)[C@H](C)NC(=O)[C@@H]2CCCN2C1=O [Mupain-1 Y4A, CPAASRYLDC] (Ac-CPAASRYLDC-NH2; disulfide 1-10)
[A] > 1 mM

// data source = paper PMC4278837
